Reference source: ChEMBL document CHEMBL1126528

What follows is a collection of pIC50 values obtained with Human immunodeficiency virus type 1 protease (Human immunodeficiency virus 1).
API: returns pIC50 as number; meaning -log10 of concentration in mol/L.

Examples with their reported pIC50 follow.
compound CC[C@H](C)[C@H](NC(=O)[C@H](Cc1ccccc1)CC(O)CN1C[C@H]2CCCC[C@H]2C[C@H]1C(=O)NC(C)(C)C)C(=O)NCc1nc2ccccc2[nH]1 (single isomer, unassigned) , pIC50 observed: 7.52

Per the records, this compound ( CC(C)(C)NC(=O)[C@@H]1C[C@@H]2CCCC[C@@H]2CN1CC(O)C[C@@H](Cc1ccccc1)C(=O)N[C@H]1CCCC[C@@H]1NC(=O)c1ccc2ccccc2n1 (some centres not stated) ) has pIC50 equal to 7.15

Per the records, this compound ( CC[C@H](C)[C@H](NC(=O)[C@H](Cc1ccccc1)CC(O)CN1C[C@H]2CCCC[C@H]2C[C@H]1C(=O)NC(C)(C)C)C(=O)NCc1ccccn1 (some centres not stated) ) has pIC50 equal to 6.82

More entries:
pIC50 recorded for this compound, CC[C@H](C)[C@H](NC(=O)[C@H](Cc1ccccc1)CC(O)CN1CCCCC1C(=O)NC(C)(C)C)C(=O)NCc1ccccn1 (some centres not stated) , is 6.60

response.value for CC[C@H](C)[C@H](NC(=O)[C@H](Cc1ccccc1)CC(O)CN1CCC[C@@H]1C(=O)NC(C)(C)C)C(=O)NCc1nc2ccccc2[nH]1 (some centres not stated) (field: pIC50) = 7.10

Form: compound = CC[C@H](C)[C@H](NC(=O)[C@H](Cc1ccccc1)CC(O)CN1CCCCC1C(=O)NC(C)(C)C)C(=O)NCc1nc2ccccc2[nH]1 (some centres not stated) ; pIC50 = 7.52
